Assay: Acute toxicity after intravenous injection
Settings: mouse, in vivo, ddY mice (male, 6 weeks old), death rate up to 24 hours, read-out: 50% lethal dosage LD50 of acute toxicity
measurement.label: LD50 at 24 h (mg/kg)
The figure you give is taken to be in mg/kg; do not add the unit.

Can you share its LD50 at 24 h? I mean this compound: OC1(c2ccc(-c3ccccc3)c(F)c2)CCN(C/C=C/c2ccccc2)CC1
32

---

System: T-type Ca^2+ channel
Assay: T-type calcium channel inhibitory effect (whole-cell patch clamp, hippocampal CA1 pyramidal cells)
Settings: read-out: T-type Ca^2+ channel inhibitory effect IC50; suppression of peak current after one minute of application; rat hippocampal CA1 pyramidal cells
pIC50: −log10 of the molar value.
Is pIC50 at least 6? Then Met. If not, Not met.

Assess whether reported pIC50 for OC1(c2ccc(Oc3ccccc3)cc2)CCN(C/C=C/c2ccccc2)CC1 sits at 6 or higher.
Not met

Reported pIC50 reaches at least 6 for O=C(CN1CCC(O)(c2ccc(-c3ccccc3)c(F)c2)CC1)c1ccccc1 ?
Not met

Quick check, pIC50 >= 6? OC1(c2ccc(-c3ccccc3)c(F)c2)CCN(C/C=C/c2ccccc2)CC1
Not met

Please find the next molecule below.
Does the molecule O[C@H](COc1ccccc1)CN1CCC(O)(c2ccc(-c3ccccc3)c(F)c2)CC1 have recorded pIC50 that is 6 or more?
Met
